# assay_summary: NCI Yeast Anticancer Drug Screen. Data for the rad50 strain (AID 155);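 note: 0% = growth of vehicle-only cultures of the same strain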
# applied_conditions: S. cerevisiae rad50 strain growth inhibition; at 50.0 µM; stronger effect = higher value
Compounds without any hit were thinned out: in the full panel of roughly 79,000, 15% have a hit.
Kindly state growth inhibition for each of the entries shown.
# output: bare number, implied unit %

// growth inhibition lookup, key: N#Cc1c(N)nc(N)nc1Nc1ccc(Cl)cc1
13.6

// growth inhibition lookup, key: CCCCCCCCC(C)(C)O
-3.15

// growth inhibition lookup, key: COc1ccc2oc3c(ccc[n+]3C)c(=O)c2c1
-22.9

// growth inhibition lookup, key: CCOC(=O)C1CN(CCCN2CC(C(=O)OCC)C(=O)C2=O)C(=O)C1=O (stereo unspecified)
9.9

// growth inhibition lookup, key: COC(=O)Nc1cc2c3c(c1)CCCN3CCC2
-6.35

// growth inhibition lookup, key: COc1ccc2c(c1OC)C1=NCCc3cc4c(cc3C1(OC)C2=O)OCO4 (stereo unspecified)
-7.15
